// values below are reported relative value of KD with monkey TfR (KD with hTfR taken as 1)
Molecular target: T1, recombinant monkey TfR, extracellular region of cynomolgus monkey transferrin receptor with a histidine tag … (cynomolgus monkey (Macaca fascicularis), UniProt Q5RDH6 89-760 (Pongo abelii entry))
T1 construct: also called monkey TfR-ECD(Histag); cynomolgus monkey TfR; not shown: N-terminal histidine tag
T1 chain: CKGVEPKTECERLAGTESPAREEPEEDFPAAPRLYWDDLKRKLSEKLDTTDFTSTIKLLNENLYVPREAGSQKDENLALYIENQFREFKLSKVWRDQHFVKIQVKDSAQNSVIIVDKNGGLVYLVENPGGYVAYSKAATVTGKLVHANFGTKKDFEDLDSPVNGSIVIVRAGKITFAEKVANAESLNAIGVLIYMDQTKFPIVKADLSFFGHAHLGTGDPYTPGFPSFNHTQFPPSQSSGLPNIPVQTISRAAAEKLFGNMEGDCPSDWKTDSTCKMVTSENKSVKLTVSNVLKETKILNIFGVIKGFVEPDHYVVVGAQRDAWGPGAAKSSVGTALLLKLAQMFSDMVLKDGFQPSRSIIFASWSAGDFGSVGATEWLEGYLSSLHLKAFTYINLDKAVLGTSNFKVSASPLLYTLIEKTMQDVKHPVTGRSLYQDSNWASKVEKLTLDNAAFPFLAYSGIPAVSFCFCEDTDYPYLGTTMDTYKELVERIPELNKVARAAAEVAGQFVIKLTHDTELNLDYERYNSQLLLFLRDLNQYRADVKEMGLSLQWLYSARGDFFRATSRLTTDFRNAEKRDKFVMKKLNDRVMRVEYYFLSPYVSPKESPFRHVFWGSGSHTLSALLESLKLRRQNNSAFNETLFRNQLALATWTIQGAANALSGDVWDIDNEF
Assay: ratio calculated from the measured KD values
recordedMetric: relative value of KD with monkey TfR (KD with hTfR taken as 1)

binder="hTfR affinity peptide 2 (VHH, The tag is stated only for peptide 1; Peptides 2 to 5 were obtained 'in the same manner'; also called clone 2; VHH(2)) VHH: QVQLVESGGGLVHPGGSLSLSCAASGTSFSFNTVTWYRQALGKQREWVATINGSGAPTYADSVKGRFTISRDGAKNTVYLLMNSLVTEDTALYYCYDRYNEIRGQGTQVTVSS" observedvalue=2.36
binder="hTfR affinity peptide 1 (VHH, Expressed in CHO-S cells, purified on Anti-FLAG M1 agarose; also called clone 1; VHH(1)) VHH: QVQLVESGGGLVHPGGSLRLSCVASGTSFSLNVVTWYRQALGKQREWVATINQSEAPTYADSVKGRFTISRDGAKNTVYLQMNSLVTEDTALYYCYDRYNEIRGQGTQVTVSS" observedvalue=1.06
binder="hTfR affinity peptide 3 (VHH, The tag is stated only for peptide 1; Peptides 2 to 5 were obtained 'in the same manner'; also called clone 3; VHH(3)) VHH: QVQLVESGGGLVQPGESLRLSCAASGSIFDIYVMRWYRQAPGNQREWVASIYDGGRNDYDNVVKGRFTISRDNAKNTVHLQMNSLKPEDTAVYFCNVLTYAGRPYWGQGTQVTVSS" observedvalue=1.02
binder="hTfR affinity peptide 4 (VHH, The tag is stated only for peptide 1; Peptides 2 to 5 were obtained 'in the same manner'; also called clone 4; VHH(4)) VHH: QVQLVESGGGLVQAGASLRLSCAASGRTDGIDRMAWFHQAPGEGREFVAGINKRGGGVDYAPGVKGRFTLSLDSDKNTLYLQMNNLRLEDTGVYSCAVGSGRIIVKSDTWGQGTQVTVSS" observedvalue=0.83
binder="hTfR affinity peptide 5 (VHH, Same CDRs as peptide 3; The tag is stated only for peptide 1; Peptides 2 to 5 were obtained 'in the same manner'; also called clone 5; VHH(5)) VHH: QVQLVESGGGLVQPGGSLRLSCAASGSIFDIYVMRWYRQAPGKGLEWVASIYDGGRNDYDNVVKGRFTISRDNSKNTLYLQMNSLRAEDTAVYFCNVLTYAGRPYWGQGTQVTVSS" observedvalue=1.27
